Ref: patent US20110217237A1

Provide the reported koff of each item.
Biological target: T1, cynomolgus monkey DLL4 extracellular domain (cynomolgus monkey)
T1 construct: extracellular domain; also called cynoDLL4 ECD; Cyno DLL4
Assay: SPR (Biacore)
One number for each entry, in s⁻¹.

Solved cases below.
1. 38H12 rat anti-DLL4 monoclonal antibody (antibody, rat IgG2a, V domains shown, rat IgG2a/k hybridoma mAb; also called MC10-38H12.2G8; 38H12 rat mAb) VH: EVQLVESGGGLVQPGRSLKLSCAASGFTFSNYGMYWIRQAPTKGLQWVAFISHGGGITYYRDSVKGRFTISRDNAKSTLYLQMDSLRSEDTATYHCAALNWELGIDYWGQGVMVTVSS VL: DIQMTQSPASLSASLGETISIECRASEDIYSNLAWYQKKSGKSPQLLIYAANRLQDGVPSRFSGSGSGTQYSLKISGMQPEDEGDYFCLQGSKFPLTFGSGTKLEIKR = 9.8e-05
2. 1A11 rat anti-DLL4 monoclonal antibody (antibody, rat IgG1, V domains shown, rat IgG1/K hybridoma mAb; also called MC13-1A11.2E1; 1A11 (rat mAb)) VH: EVQLVESGGGLVQPGRSMKLSCAASGFTFRNFPMAWVRQAPTRGLEWVATISSSDGTTYYRDSVKGRFTISRDNAKSTLYLQVNSLRSEDTATYYCSRGYYNSPFAYWGQGTLVTVSS VL: DIQMTQSPASLSASLGETVTIECRASEDIYSNLAWYQQKPGNSPQLLIFDTNNLADGVPSRFSGSGSGTQSSLKINSLQSEDVASYFCQQYNNYPPTFGGGTKLELKR = 0.00093

Entry 32C7 rat anti-DLL4 monoclonal antibody (antibody, rat IgG2a, V domains shown, rat IgG2a/k hybridoma mAb; also called MC10-32C7.5A4) VH: EVQLVESGGGLVQPGRSLKLSCLASGFPFSSVWMTWIRQAPGKGLEWIATITNSGASTYYSASVKGRFTISRDNVKSTLYLQMTSLGSEDTATYYCTRVGTSFDYWGQGVMVTVSS VL: DIQMTQSPASLSASLGETVTIECRASDDIYNGLAWFQQKPGKSPQLLIYDANTLHTGVPSRFSGSGSGTQFSLKINSLQSEDVASYFCQQFYDYPPYTFGAGTKLELKR , koff reported as 6.3e-06
